System: HMVEC capillary tube formation
EXPERIMENT_NOTES: HMVEC capillary tube formation assay
Type: cell-based
APPLIED_CONDITIONS: Homo sapiens, ANG1-stimulated, 18 hours, read-out: IC50 value for inhibition of ANG1-stimulated HMVEC capillary tube formation

# MOLECULAR_STRING, IC50, nM
rows = [
    ("CNC(=O)c1cc(Oc2ccc(NC(=O)Nc3cc(C(C)(C)C)nn3-c3ccc4ncccc4c3)c(F)c2)ccn1.Cc1ccc(S(=O)(=O)O)cc1", 6.9),
]

// provenance: patent US9457019B2
